# METHOD DESCRIPTION: physchem
# CONDITION INFO: organic solvent or mixture
MEASURED PROPERTY: solubility (µg/mL)
Numbers only, in µg/mL.

// recorded solubility for Nc1nc(F)nc2c1ncn2[C@H]1C[C@H](O)[C@@H](CO)O1 [FdA, 2-fluoro-2′-deoxyadenosine] : 9500
